Hey, just so you know, these numbers are from patent US20230303649A1.

- ASSAYED SYSTEM: T1, IL-2R on human primary T cells (human, UniProt P01589 22-272; P14784 27-551; P31785 23-369)
- T1 sequence (looked up) 1: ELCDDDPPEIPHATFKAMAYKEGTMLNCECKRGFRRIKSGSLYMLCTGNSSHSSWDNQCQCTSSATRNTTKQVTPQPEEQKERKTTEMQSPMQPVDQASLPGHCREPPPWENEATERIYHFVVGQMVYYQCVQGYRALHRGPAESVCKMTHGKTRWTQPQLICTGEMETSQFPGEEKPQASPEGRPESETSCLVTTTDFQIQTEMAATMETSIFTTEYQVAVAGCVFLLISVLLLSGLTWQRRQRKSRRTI
- T1 sequence (looked up) 2: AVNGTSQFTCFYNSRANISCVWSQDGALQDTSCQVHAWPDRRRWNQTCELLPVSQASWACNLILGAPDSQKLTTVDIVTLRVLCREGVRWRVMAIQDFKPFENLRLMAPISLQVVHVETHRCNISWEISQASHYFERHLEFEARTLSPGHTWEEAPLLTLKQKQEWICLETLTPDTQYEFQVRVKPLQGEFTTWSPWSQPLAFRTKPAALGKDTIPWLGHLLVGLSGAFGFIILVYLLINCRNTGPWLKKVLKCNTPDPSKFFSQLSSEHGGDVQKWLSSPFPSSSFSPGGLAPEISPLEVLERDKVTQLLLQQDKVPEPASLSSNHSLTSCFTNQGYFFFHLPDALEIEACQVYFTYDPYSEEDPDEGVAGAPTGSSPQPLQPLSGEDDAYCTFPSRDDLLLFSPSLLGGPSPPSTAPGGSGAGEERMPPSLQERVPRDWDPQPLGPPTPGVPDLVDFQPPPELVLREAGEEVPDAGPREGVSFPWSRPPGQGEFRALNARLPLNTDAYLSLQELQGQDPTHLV
- T1 sequence (looked up) 3: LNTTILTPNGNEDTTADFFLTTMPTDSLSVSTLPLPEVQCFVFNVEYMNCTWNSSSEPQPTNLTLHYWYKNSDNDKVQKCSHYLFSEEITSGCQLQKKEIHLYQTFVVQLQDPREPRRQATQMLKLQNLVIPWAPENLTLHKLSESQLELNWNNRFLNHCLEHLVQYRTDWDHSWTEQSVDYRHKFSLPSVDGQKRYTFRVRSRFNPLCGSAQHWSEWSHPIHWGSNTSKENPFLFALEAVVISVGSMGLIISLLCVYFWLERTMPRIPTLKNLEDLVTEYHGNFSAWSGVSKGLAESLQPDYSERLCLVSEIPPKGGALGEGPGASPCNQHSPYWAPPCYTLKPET
- ASSAY DETAILS: cell-based or functional assay
Answer each item with its documented CD8 EC50 (nM), STAT5 phosphorylation.
Give bare numbers, in nM.

SEQ ID NO 17 (ligand) APTSSSTKKTQLQLEHLRLDLQMILNGINNYKNPKLTRMLTFKFYMPKKATELKHLQCLEEELKPLEEVLNLAQSKNFHFDPRDVVSNINVFVLELKGSETTFMCEYADETATIVEFLNRWITFSTSIISTLT    10000

As a next step, examine the binder that follows.
Query :: Request the reported CD8 EC50 (nM), STAT5 phosphorylation associated with SEQ ID NO 25 (ligand) APTSSSTKKTQLQLEHLLLDLQMILNGINNHKNPRLTRMLTFKFYMPKKATELKHLQCLEEELKPLEEALRLAPSKNFHLRPRDLISNINVIVLELKGSETTFMCEYADETATIVEFLNRWITFSTSIISTLT
Result :: 10000
